test system: GES1; experiment: Cytotoxicity against androgen-negative human GES1 cells assessed as cell growth inhibition measured after 72 hrs by SRB assay; format: cell-based; conditions: GES1, 72 h
experimental.readout: IC50

See these solved cases before continuing.
Lab note: measured IC50 of CC1(C)C(=O)N(c2ccc(C#N)c(C(F)(F)F)c2)C(=S)N1CCCCn1cc(COCCOCCOC(=O)CC23CC4CC(CC(C4)C2)C3)nn1 was > 80 µM

Record CC1(C)C(=O)N(c2ccc(C#N)c(C(F)(F)F)c2)C(=S)N1CCCn1cc(COCCOCCOC(=O)CC23CC4CC(CC(C4)C2)C3)nn1 , field IC50: > 80 µM

// recorded IC50 for CC1(C)C(=O)N(c2ccc(C#N)c(C(F)(F)F)c2)C(=S)N1CCCn1cc(COCCOCCOCCOC(=O)CC23CC4CC(CC(C4)C2)C3)nn1 : > 80 µM

Kindly consider the entry below.
Notebook: CC1(C)C(=O)N(c2ccc(C#N)c(C(F)(F)F)c2)C(=S)N1CCCCCn1cc(COCCOCCOC(=O)CC23CC4CC(CC(C4)C2)C3)nn1 , IC50 read as > 80 µM

Every entry's value here was drawn from ChEMBL document CHEMBL4706528.
